- SYSTEM_UNDER_TEST: Botulinum neurotoxin type B, subtype B3 (BoNT/B3) (Clostridium botulinum)
- RUN_DESCRIPTION: flow cytometry; yeast-displayed scFv, soluble toxin
In this section, each of the binders is paired with its reported pKd.
Please note pKd is a logarithmic value: minus log10 of concentration in mol/L. Answer with that number alone.

Study these solved cases before continuing.
2B23 scFv (yeast displayed) (scFv) scFv: EVQLLESGGGLVQPGGSLRLSCAASGFTFSNYPMSWVRQAPGKGLAWVSSLTASGDNTFYADSVKGRFTISRDNSNNTLYLQMHSLRAEDTAVYYCAKALVGRYDISTGYYRPVMDSWGQGTLVTVSSGGGGSGGGGSGGGGSDIQMTQSPPSLSASVGDRVTITCRTSQGFTSALAWYQQKPGEPPKLLIYDASKLESGVPSRFSGSGSGTNFALTISSLQPEDFATYFCQQSNSYPLTFGGGTKVEIKR = 9.60
1B11 scFv (yeast displayed) (scFv) scFv: QVQLLQSAGGVVQPGRSLRLSCAASGFIFRTYGMHWVRQAPGKGLEWVAFVSSDGNNKFYSDSVKGRFTIPRDNAKNTLYLQMNSLETEDTAVYYCAKDRYPIDCSGGSCFSYGMDVWGQGTTVTVSSGGGGSGGGGSGGGGSDIVMTQSPSTLSASVGDRVTVTCRASQSINSWLAWYQQKPGKAPKLLIYEASSLESGVPSRFSGSGSGTEFTLTISSLQPDDFATYYCQQYDSYWLTFGGGTKVEIK = 8.35

[Q] Quick one: pKd of 2B25 scFv (yeast displayed) (scFv) scFv: QVQLQESGPGLVKPSQTLSLSCSVSGASITSGTFYWSWIRQHPGKDLEWIGYIYYSGTTYYNPSLKSRVTLSVDTSKNQFSLKVTSLTAADTAVYHCARGVPIYDSSGTYRGTYFDYWGQGTLVTVSSGGGGSGGGGSGGGGSQPGLTQPPSASGTPGQRVTISCSGSSSNVGSNTVNWYQQLPGTAPKLLIYRNDQRPSGVPDRFSGSKSGASASLAISGLRSEDEADYYCAAWDDSLNGLLFGGGTQLTVLG ?
[A] 9.03

[Q] Quick one: pKd of 1B18 scFv (yeast displayed) (scFv) scFv: EVQLVQSGGGLVQPGGSRRLSCAASGFYFNAYWMTWVRQAPGKGLEWVANINLDGTEIYYLDSVKGRFTVSRDNVKNSVFLQMSSLRVEDTAVYFCARLEWGGRNGWVSPWGQGTLVTVSSGGGGSGGGGSGGGGSDVVMTQSPSSVSASVGDRVTITCRASQSISSYLNWYQQRPGKAPKLLIFAASSLQSAVPSRFSGSGSGTDFTLTISSLQPEDFATYYCQQSYSTPPTFGQGTKVEIKR ?
[A] 8.52
